Cited source for all entries: patent US20250092056A1

- Test system: SARS-CoV-2
- assay comment: Cytopathic effect (CPE) suppression effect confirmation test using HEK293T/ACE2-TMPRSS2 cells
- Type: cell-based
- condition label: Severe acute respiratory syndrome coronavirus 2, HEK-293T, 72 h, read-out: EC50 (50% SARS-CoV-2 infected cell death inhibitory concentration), class, HEK293T/ACE2-TMPRSS2 cells, CPE suppression, CellTiter-Glo 2.0 after 3 days culture
Provide the recorded EC50 for the entries that follow.

Each compound below has a recorded value; state its EC50.
1. N#CCn1c(N2Cc3ccccc3C2)c(Cc2cc(F)c(F)c(F)c2)c(=O)n(-c2cnc3ccccn23)c1=O
2. Cn1cnc(Cn2c(=O)c(Cc3cc(F)c(F)c(F)c3)c(N3CCc4ccccc4C3)n(CC#N)c2=O)n1
3. Cc1cncc(-n2c(=O)c(Cc3cc(F)c(F)c(F)c3)c(N3CCC4(CCC(O)C4)C3)n(CC#N)c2=O)c1 (racemic)
4. N#CCn1c(N2CC(F)(C3CC3)C2)c(-c2ccc(F)c(Cl)c2)c(=O)n(-c2cnc3cc(F)ccn23)c1=O

Reply |
1. < 100 nM
2. 100 to 1000 nM
3. < 100 nM
4. < 100 nM

Look up EC50 for the entries below, preserving their order.
1. Cc1cncc(-n2c(=O)c(-c3ccc(F)c(Cl)c3)c(Oc3cccc4ccccc34)n(CC#N)c2=O)c1
2. CC1(C)CCN(c2c(-c3cccc(C#N)c3)c(=O)n(-c3cncc(Cl)c3)c(=O)n2CC#N)CC1
3. Cc1cncc(-n2c(=O)c(Cc3cc(F)c(F)c(F)c3)c(N3CCC(C(N)=O)CC3)n(CC#N)c2=O)c1
4. Cc1cncc(-n2c(=O)c(Cc3cc(F)c(F)c(F)c3)c(N3CCC(C(F)F)C3)n(CC#N)c2=O)c1 (racemic)
5. Cc1cncc(-n2c(=O)c(-c3ccc(F)c(Cl)c3)c(N3CC4(CCOC4)C3)n(CC#N)c2=O)c1
6. Cc1cncc(-n2c(=O)c(Cc3cc(F)c(F)c(F)c3)c(N3CCCC(C(F)(F)F)C3)n(CC#N)c2=O)c1 (racemic)
7. N#CCn1c(N2CC(O)(C(F)(F)F)C2)c(-c2ccc(F)c(Cl)c2)c(=O)n(-c2cnc3cc(F)ccn23)c1=O
8. N#CCn1c(N2CC3(CCOC3)C2)c(-c2ccc(F)c(Cl)c2)c(=O)n(-c2cnc3ccc(F)cn23)c1=O

Reply |
1. < 100 nM
2. < 100 nM
3. 100 to 1000 nM
4. < 100 nM
5. < 100 nM
6. < 100 nM
7. < 100 nM
8. < 100 nM

Please give EC50 for each item listed below.
1. Cc1cc(-n2c(=O)c(-c3ccc(F)c(Cl)c3)c(C#CC3CC3)n(CC#N)c2=O)cc(=O)[nH]1
2. Cc1cncc(-n2c(=O)c(-c3ccc(F)c(Cl)c3)c(-c3nc4ccccc4s3)n(CC#N)c2=O)c1
3. Cc1cncc(-n2c(=O)c(Cc3cc(F)c(F)c(F)c3)c(N3CCC(S(N)(=O)=O)C3)n(CC#N)c2=O)c1 (racemic)
4. N#CCn1c(N2CC3(CCOC3)C2)c(-c2cc(F)cc(Cl)c2)c(=O)n(-c2cncc(Cl)c2)c1=O
5. N#CCn1c(N2CC3(C2)CC(F)(F)C3)c(-c2ccc(F)c(Cl)c2)c(=O)n(-c2cnc3cc(F)ccn23)c1=O
6. Cc1cncc(-n2c(=O)c(Cc3cc(F)c(F)c(F)c3)c(N3CC4(C3)CC(F)(F)C4)n(CC#N)c2=O)c1
7. Cc1cncc(-n2c(=O)c(-c3ccc(F)c(Cl)c3)c(Oc3ccc(F)cc3Cl)n(CC#N)c2=O)c1

Reply |
["100 to 1000 nM", "< 100 nM", "100 to 1000 nM", "< 100 nM", "< 100 nM", "< 100 nM", "< 100 nM"]
